# METHOD_SUMMARY: Plasma concentration of paclitaxel in A549 xenograft mice
# Assay type: in vivo
# PROTOCOL_CONDITIONS: BALB/c, mouse, intraperitoneal, 10 mg/kg, plasma concentration of paclitaxel […] after administration, PTX 10 mg/kg I.P., PTX + WAB 10 + 50 mg/kg I.G., Day 34, mean
QUANTITY_MEASURED: concentration at […] (ng/mL)
Report as a plain number; the unit ng/mL is understood.

Ask: Need concentration at […] of "CC(=O)O[C@H]1C(=O)[C@@]2(C)[C@H]([C@H](OC(=O)c3ccccc3)[C@]3(O)C[C@H](OC(=O)[C@H](O)[C@@H](NC(=O)c4ccccc4)c4ccccc4)C(C)=C1C3(C)C)[C@]1(OC(C)=O)CO[C@@H]1C[C@@H]2O" , thanks.
Reply: 201

* * *

# METHOD_SUMMARY: in vitro
# PROTOCOL_CONDITIONS: human, Caco-2
QUANTITY_MEASURED: Papp A→B at 120 min, 1 μg/mL (×10⁻⁶ cm/s)
Report as a plain number; the unit ×10⁻⁶ cm/s is understood.

Ask: Need Papp A→B at 120 min, 1 μg/mL of CC(=O)O[C@H]1C(=O)[C@@]2(C)[C@H]([C@H](OC(=O)c3ccccc3)[C@]3(O)C[C@H](OC(=O)[C@H](O)[C@@H](NC(=O)c4ccccc4)c4ccccc4)C(C)=C1C3(C)C)[C@]1(OC(C)=O)CO[C@@H]1C[C@@H]2O [Paclitaxel] , thanks.
Reply: 0.252
